Measured values drawn from PubChem BioAssay for this set.

A collection of compounds and their measured nuclei count
Assay: reduction of polyQ htt aggregates in cells – imaging, exon1htt(103Q)mCFP cells, high-content imaging, primary screen (AID 483);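 also: compound exposure lasted 3 days before fixation; percent of the per-plate median nuclei count of sample wells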
Details: exon1htt(103Q)mCFP cell line, aggregate imaging, at 2 µM; measured here: cell count, toxicity
Test readout: nuclei count (%)

* CCOC(=O)N1CCN(C(=O)c2csc3c2CCCCC3)CC1 | 121
* CCOc1ccc(S(=O)(=O)n2nc(C)cc2C)c2ccccc12 | 108
* COc1ccc(CN(Cc2nc3ccccc3c(=O)[nH]2)C(=O)NC2CCCCC2)cc1 | 100
* Cc1nc2scc(-c3cccs3)c2c(=O)n1-n1cccc1 | 102
* Cn1c(C(=O)OCC(=O)NCC2CCCO2)cc2sccc21 (stereo not drawn) | 108
* CC(C)(Oc1ccc(Cl)cc1)C(=O)NCc1ccncc1 | 96.4
* O=C(COC(=O)C1CCN(S(=O)(=O)c2cccs2)CC1)c1cc2ccccc2o1 | 98.7
* COc1cc(Br)cc(/C=N/c2ncn[nH]2)c1O | 101
* Cc1ccccc1NS(=O)(=O)c1cc(S(C)(=O)=O)ccc1Cl | 102
* COc1cc(CN(C)CC(=O)c2[nH]c(C)c(C(C)=O)c2C)ccc1OC(F)F | 95.9
* O=C(Nc1ccc(Br)cc1F)c1sccc1-n1cccc1 | 103
* COCCn1nnnc1C(C(C)C)N1CCN(C(=O)c2ccco2)CC1 (stereo not drawn) | 85.2
* CC(C)(O)C1=NOC(c2ccccc2)C1 (stereo not drawn) | 98.5
* O=C(NCc1ccc2c(c1)OCO2)C1CCC(CNS(=O)(=O)c2ccccc2)CC1 (stereo not drawn) | 111
* Cn1cc(Cl)c(C(=O)NC2CCCC2)n1 | 64.4
* CCOCCCNC(=O)C1CCN(S(=O)(=O)c2c(C)noc2/C=C\c2ccc(OC)cc2)CC1 | 99.9
* Cc1ccc(-n2c(Cn3cnc4ccccc43)nnc2SCC(=O)O)cc1 | 108
* CCOC(=O)CSc1nnc(-c2ccc(Cl)cc2Cl)o1 | 93.8
* Cc1c(C(=O)N2CCOCC2)oc2ccc(S(=O)(=O)N3CCCC3)cc12 | 106
* Cc1nn(-c2ccc(F)cc2)c2sc(C(=O)N3CCCCCC3)cc12 | 83.1
* Cc1cc(NC(=O)CCC(=O)N(CC(=O)NC2CCCC2)Cc2ccc(F)cc2)no1 | 103
* CCN(CCNC(=O)C1CCN(S(C)(=O)=O)CC1)c1ccccc1 | 113
* CCOC(=O)c1[nH]c(CSc2nnc(-c3ccc(OC)cc3)o2)c(C(=O)OCC)c1C | 124

----------
Biological target: Alpha-2C adrenergic receptor (Homo sapiens) (UniProt P18825)
Sequence (P18825 whole entry, looked up): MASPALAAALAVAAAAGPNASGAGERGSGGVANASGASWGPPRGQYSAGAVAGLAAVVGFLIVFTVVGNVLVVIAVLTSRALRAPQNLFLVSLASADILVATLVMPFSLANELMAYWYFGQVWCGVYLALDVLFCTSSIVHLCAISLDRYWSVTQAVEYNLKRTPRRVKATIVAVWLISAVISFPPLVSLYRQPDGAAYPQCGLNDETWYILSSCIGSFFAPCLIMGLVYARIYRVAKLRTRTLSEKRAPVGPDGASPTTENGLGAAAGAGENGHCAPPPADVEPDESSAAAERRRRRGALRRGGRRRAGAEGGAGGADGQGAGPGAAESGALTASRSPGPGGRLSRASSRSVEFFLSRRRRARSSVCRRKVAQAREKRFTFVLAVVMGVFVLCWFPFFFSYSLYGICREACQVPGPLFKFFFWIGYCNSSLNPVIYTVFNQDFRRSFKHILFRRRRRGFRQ
Test: compounds altering alpha2C-coupled GIRK flux – cell-based, HEK293 alpha2C/GIRK1/2, thallium flux, primary screen (AID 624);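 also: slope of fluorescence ratio to pre-addition baseline per second over 15 to 24 s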
Settings: thallium flux BTC fluorescence, at 10 µM, actives lie on both sides
slope strictly under 0.005 means Fulfilled; at 0.005 or over means Not fulfilled.

- Cc1c(C)[n+](=O)c2c(n1[O-])CCCCC2: Not fulfilled
- CCCSc1nc2c(cnn2-c2ccc(C)cc2)c(=O)[nH]1: Not fulfilled
- O=C(Nc1ncc2c(n1)CC(c1ccccc1)CC2=O)c1ccco1 (stereo unspecified): Not fulfilled
- COc1ccccc1-n1c(-c2cccnc2)n[nH]c1=S: Fulfilled
- Cc1nn(C)c(C)c1NC(=O)CCSc1nc(-c2ccco2)cc(C(F)(F)F)n1: Not fulfilled
- COc1ccc(N2CCN(C(=O)C(C)(C)Oc3ccc(Cl)cc3)CC2)cc1: Not fulfilled
- O=C1CC(c2cccc(Cl)c2)Cc2nc(N3CCN(c4ccccc4)CC3)ncc21 (stereo unspecified): Fulfilled
- O=C(Nc1nccs1)c1cccc(NC(=O)C2CC2)c1: Fulfilled
- CCCCCCc1ccc(-c2ncc(N)cn2)cc1: Fulfilled
- O=C(c1ccco1)N1CCN(C(=O)c2cc3c(s2)-c2ccccc2OC3)CC1: Not fulfilled

----------
Experiment: reduction of polyQ htt aggregates in cells – imaging, exon1htt(103Q)mCFP cells, high-content imaging, primary screen (AID 483);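 also: compound exposure lasted 3 days before fixation; percent of the per-plate median nuclei count of sample wells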
Settings: exon1htt(103Q)mCFP cell line, aggregate imaging, at 2 µM; measured here: cell count, toxicity
Test readout: nuclei count (%)

• CCOC(=O)c1cccc(NC(=O)c2ccco2)c1 = 100
• CC(Sc1nc(-c2ccccc2)cc(C(F)(F)F)n1)C(=O)N1CCCC1 (stereo unspecified) = 118
• O=C(Nc1ccc(Cl)c(C(F)(F)F)c1)N1CCCC(O)C1 (stereo unspecified) = 106
• COc1cc(C(=O)Nc2ccc(-n3cnnn3)c(C)c2)cc(OC)c1OC = 90
• COc1ccccc1S(=O)(=O)Cc1ccc(C(=O)N2CCN(c3ccc(C)cc3)C(C)C2)o1 (stereo unspecified) = 117
• Cn1c2ccccc2c2ncn(CCCN3CCOCC3)c(=O)c21 = 94
• COc1ccc(S(=O)(=O)N2CCN(CC(=O)Nc3ccc(C)c(F)c3)CC2)cc1 = 115
• Cc1cccc(NC(=O)CSc2nnc(-c3cc(C)n(-c4ccccc4)c3C)o2)c1C = 48
• CCOCCCNC(=O)C1CCN(S(=O)(=O)N(CC(C)C)CC(C)C)CC1 = 79.1
• CCS(=O)(=O)NCCc1cc2c(OC)ccc(OC)c2[nH]c1=O = 83.7
• COc1ccc(CCNC(=O)c2ccc(N3CCCC3=O)cc2)cc1OC = 62.2

----------
Assay: inhibitors of TNFa-induced NFkB p65 translocation, primary screen, imaging, HUVEC, MLSMR starter and 10KST1 sets (AID 438);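 also: compound added about 3h40 before a 20 min TNFalpha stimulation; signal is the nuclear over cytoplasmic p65 intensity ratio per well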
Details: HUVEC TNFa-induced p65 nuclear translocation; at 2 µM, stronger effect = higher value, 0% TNFa-plus-vehicle, 100% no-TNFa wells
Test readout: inhibition (%)

* COc1cccc(CNC(=O)CCS(=O)(=O)c2cccc3nsnc23)c1 | -6.5
* NC(=O)CCS(=O)(=O)CCN1CCCCC1 | 5.7
* CCc1ccccc1NC(=O)c1cnc2n(c1=O)CCS2 | -3.9
* O=C1CC(c2ccccc2)CC(O)=C1C=NCCN1CCOCC1 (stereo unspecified) | -2.9
* O=C(OCC(=O)N1CCc2ccccc21)C1=COCCO1 | -3.1
* CSc1nc2ccc(Nc3nc(N4CCOCC4)nc(N4CCOCC4)n3)cc2s1 | 4.9
* CN1CCN(C(c2cccc(C(F)(F)F)c2)c2nnnn2C(C)(C)C)CC1 (stereo unspecified) | -6
* COc1ccc2c(CC(=O)Nc3ccc(OC)c(NS(=O)(=O)c4ccc(F)cc4)c3)coc2c1 | -1.4
* O=C(Cn1nnc2ccccc2c1=O)NC1CCCc2ccccc21 (stereo unspecified) | -2.9
* CC1(C)Cc2cccc(OCC(O)CN3CCN(c4ccccn4)CC3)c2O1 (stereo unspecified) | -7.3
* CN1C(=O)CC(N2CCC(C(N)=O)(N3CCCCC3)CC2)C1=O (stereo unspecified) | 5.4

----------
Assay: TLR3 IRF3 reporter activation blockers – cell-based, poly I:C stimulus, luciferase, 10K MLSCN set, primary screen (AID 602277)
Conditions: HEK293-TLR3 RL24 IRF3 luciferase reporter, at 10 µM, stronger effect = higher value
Test readout: inhibition (%)

* Cc1nnc(SCC(=O)N2CCN(S(=O)(=O)c3ccccc3)CC2)[nH]c1=O | 13.4
* COc1ccc(C(=O)N2CCN(S(=O)(=O)c3cc(Cl)ccc3OC)CC2)cc1 | 18
* Cc1ccc2cc(CN(CCN3CCCC3)C(=O)Nc3ccc(F)cc3)c(=O)[nH]c2c1C | 16.1
* COc1cccc(-c2cc(C(=O)NCc3ccc(Cl)cc3)no2)c1 | -11.6
* CC(C)n1c(CN2CCN(C)CC2)nc2c1c(=O)n(C)c(=O)n2C | 22.9
* CSCSC1=C(C#N)C(c2ccc(Cl)cc2)C(C(C)=O)=C(C)N1 (stereo not drawn) | 23.2
* CCCCN=CC1=C(O)C(C(=O)OC)C(C)(C)CC1=O (stereo not drawn) | -9.49
* Cc1cc(C(=O)OCC(=O)N2c3ccccc3CC2C)c(C)o1 (stereo not drawn) | -2.49
* CCOC(=O)C1CCCN(CC(=O)NC2CC2)C1 (stereo not drawn) | 15.3
* Cc1occc1C(=O)N1CCN(Cc2ccccc2)CC1 | 34.1
* Nc1nnn(Cc2ccccc2)n1 | 99.3
* CC(=O)c1cn(CC(=O)NCc2ccc3c(c2)OCO3)c2ccccc12 | 9.83
* O=S(=O)(c1cc(Cl)ccc1Br)N1CCOCC1 | 35.8
* O=C(O)c1cccc(NS(=O)(=O)c2ccc3nnn(O)c3c2)c1 | 18.7
* O=C(NC1(C(=O)NC2CCCCC2)CCCCC1)c1ccc2c(c1)OCO2 | 19
* O=c1[nH]c(=O)n(C2CCCCCC2)c(O)c1C=NCc1ccc(F)cc1 | 26.9
* COc1cccc(-c2cc(C(F)(F)F)nc(NCc3ccco3)n2)c1 | 19.1
* CCOC(=O)Cc1nnc(NC(=O)c2ccccc2OCC)s1 | 4.72
* CC(=O)c1cccc(S(=O)(=O)NCC(c2ccco2)N2CCCCC2)c1 (stereo not drawn) | 6.55
* CC(=O)NC(=O)NC1CSCC1OC(C)=O (stereo not drawn) | 12
* Cc1cccc(N2C(=O)CC(N3CCN(c4cccc(C(F)(F)F)c4)CC3)C2=O)c1 (stereo not drawn) | 36.4
* CCc1nnc(NC(=O)CSc2nnc(CSc3nc(C)cc(C)n3)n2CC)s1 | -12.1
* COC(=O)c1ccccc1S(=O)(=O)NC(=O)c1ccccc1 | 24.3
